Attribute: normalized growth
assay: chemical genetic growth profiling, strain panel (AID 1159580);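 note: tested at 20 µM; growth read once vehicle control cultures reached saturation at 30 °C; 1 = growth at the plate median or of vehicle wells; lower values mean less growth of the strain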; details: S. cerevisiae deletion strains, growth OD, locus YAL013W, strain DEP1, hits give low values
Out of some 5,500 compounds screened, about 2,000 (36%) were called active. Roughly 18% stayed inconclusive and do not appear here. The list shows a part of the results.

For orientation, consider the following solved cases.
Cn1c(CSCC(=O)Nc2ccccc2)n[nH]c1=S = 1.01 (inactive)
CC(C)(Oc1ccc(CCNC(=O)c2ccc(Cl)cc2)cc1)C(=O)O = 1.02 (inactive)

Let us examine a further case.
*Q* Quickly give me recorded normalized growth for CCOP(=S)(OCC)Oc1nc(Cl)c(Cl)cc1Cl
*A* 1.01 (inactive)
